Each recorded value in this set is attributed to PubChem BioAssay (NCI).

tested on: OVCAR-5 ovarian; assay: NCI-60 one-dose screen, 48 h; conditions: 10 µM unless noted
About 83,000 compounds went through this panel and 20% of them were active in at least one assay; those are over-represented in the sample as a whole. Calls of active or inactive are those of the source. How the source made its calls: active means growth percent below 10; inactive means the rest.
Return exactly one item of active, inactive

I would be grateful if you could indicate the recorded call for CCOC(=O)C(=Cc1cccc(C#N)c1)C(=O)OCC .
inactive

Called result for COc1cc(-c2nc(NC(C)=O)sc2-c2ccnc(NCCNS(=O)(=O)c3ccccc3)n2)ccc1Cl
inactive

Answer briefly: the call reported for COc1ccc(NC(=O)c2sc3nc4c(cc3c2N)CCCC4)cc1 in this assay.
inactive

Each compound tested received a call. Report the one for CN1CCN(C(=O)c2cc(-c3ccc4ncnc(N5CCc6cc(F)c(Cl)cc65)c4c3)cnc2N)CC1 .
active

Dear all, I need the recorded test outcome for CC(C)[C@@]12C[C@@H](OC(=O)COC(=O)c3ccccc3)[C@@](C)(O1)[C@@H]1CC[C@@H](C)[C@H]1[C@@H]2OC(=O)/C=C/c1ccccc1 , thank you.
inactive

Hi, do you know how C#CCOc1cccc(-c2ncc3cc(NC(=O)CCl)ccc3n2)c1 came out in this test?
active

Could you kindly confirm the outcome this assay logged for Cc1nc2ccccc2c(/C=C/c2ccc(C(F)(F)F)cc2)c1C(=O)/C=C/c1ccccc1 ?
active

State the result this test recorded for O=S(=O)(c1ccccc1)N1CCCN(c2nc(-c3ccccc3)nc3nc(-c4ccccc4)oc23)CC1 .
inactive

Returns: the outcome recorded for N#Cc1c(-c2ccccc2)c(C#N)c2c(C#N)c(N)nn2c1N in this assay.
inactive

Returns: the outcome recorded for CCCn1c(=S)sc2c1nc(C)n1c(Nc3ccccc3)nnc21 in this assay.
inactive

Outcome logged for C/C(=N\O)C(=O)NCCCCCC(=O)Nc1ccccc1 in this assay:
inactive

Test call for this compound, please: CCCCCCCCn1ccc2cc(NC(=O)Cn3cc(CN4CCC(C)CC4)nn3)ccc21
inactive

So what was the verdict on COc1ccc2c(c1)c(-c1ccc(-c3cn(C)c4ccc(OC)cc34)[nH]1)cn2C in this test?
inactive

Test call for this compound, please: CC1(C)O[C@H]2OC3CCC(=O)CC3(O)[C@H]2O1 (stereo not given in full)
inactive

Test call, this compound: C/C(=C(\c1ccc(OCCN2CCCCCC2)cc1)c1ccc(OC(=O)Cc2ccccc2)cc1)c1ccc(Cl)cc1
inactive

----------
test system: A498 renal; assay: NCI-60 one-dose screen, 48 h (100 = growth as untreated, 0 = no growth, -100 = all killed); settings: 10 µM unless noted
About 83,000 compounds went through this panel and 20% of them were active in at least one assay; those are over-represented in the sample as a whole.
measure: growth (%)
Your answer is read as %, so omit the unit and give the number.

For the record Cc1cc2nc3c4ccccc4n(CCN(C)C)c3nc2cc1C , what value of growth is listed for A498 renal?
-15.2

Give A498 renal growth for Clc1nn2c(Cn3cnc4c(NCc5ccccc5)ncnc43)nnc2c2ccccc12
22.5

Form field - read-out: growth; system: A498 renal; submitted item: COc1ccc(C(c2cc(OC)c(OC)c(OC)c2)N2CCCC2)cc1 (stereo unspecified)
31.2

Record lookup: for A498 renal, what growth belongs to COc1ccc(C2CC(c3ccc4c(c3)OCO4)=Nc3c(N)ncnc3N2)cc1 (stereo unspecified) ?
94.4

So what growth did O=C(/C=C/c1cccc(Cl)c1)c1cccc(OCCCCOc2cccc(C(=O)/C=C/c3cccc(Cl)c3)c2)c1 get with A498 renal?
96.9

Value wanted: growth (A498 renal) of entry Cc1cc(C)c(-c2c(O)c(Br)c(-c3c(C)cc(C)c(Br)c3C)c(O)c2Br)c(C)c1Br
64.7

Look up growth with A498 renal for this compound: COc1cc2c(c(OC)c1OC)C(=O)N[C@@H]1[C@@H](O)[C@@H](O)[C@H](O)C[C@@H]21
112

API: value(readout= growth, system= A498 renal, query= COc1ccc(OC)c(Nc2nnc(-c3ccc(Cl)cc3)o2)c1 )
96

Form: Entry = O=C1OCC2=C1C(c1cccc(F)c1)c1cc3c(cc1N2CCO)OCO3 (stereo unspecified) | System = A498 renal | growth = ____
3.08

# value lookup — system A498 renal, readout growth, item COc1ccc2nc3cc(Cl)ccc3c(NCCN)c2c1
55.5

Which growth is reported with A498 renal for this entry: COc1ccc2nc(SCC(=O)Nc3ccccc3C)[nH]c2c1 ?
-41.9

API: value(readout= growth, system= A498 renal, query= CN(CCC#N)c1ccc(/C=C2\NC(=O)NC2=O)cc1 )
89.3

Requested read-out growth, target or system A498 renal, entry Cc1ccc(-c2csc(NC(=O)N3CCN(c4cc5c(cc4F)c(=O)c(C(=O)O)cn5C4CC4)CC3)n2)cc1
2.51

A498 renal / growth / CCN(CC)S(=O)(=O)c1ccc(S(=O)(=O)N2CCC[C@@H](C(=O)N3CCN(C(=O)OC(C)(C)C)CC3)C2)cc1 : value?
27.8

Find the measured growth: item O=C(/C=C/c1ccc(Br)cc1)c1ccc(-n2cc(CN3CCN(c4cc5c(cc4F)c(=O)c(C(=O)O)cn5C4CC4)CC3)nn2)cc1 , target or system A498 renal.
57.4

GET /values?readout=growth&system=A498 renal&item= Nc1ccc([N+](=O)[O-])cc1N=C/C=C/c1ccccc1
79.3

Lab note: need growth for COc1cc2c(cc1O)[C@@]1(C)[C@H](c3ccccc3Br)OC(=O)N1CC2 on A498 renal, anyone have it?
89.6

Give the reported growth for N=C(N)c1ccc(-c2ccc(-c3ccc(F)cc3)s2)s1 (system: A498 renal).
58.9

Which measured growth belongs to O=C(CSc1nc2ccc([N+](=O)[O-])cc2[nH]1)Nc1cccc([N+](=O)[O-])c1 , tested on A498 renal?
31.7

Provide value of growth for this record tested with A498 renal: C/C(=N\Nc1nc(C)cs1)c1cc2ccccc2o1
99.9

GET /values?readout=growth&system=A498 renal&item= Cc1c(N2CN3C[C@H](C)N4CN(c5c(C)n(C)n(-c6ccccc6)c5=O)CN5C[C@@H](C)N(C2)C3C54)c(=O)n(-c2ccccc2)n1C (stereo partly specified)
117

Quick check: growth on A498 renal, item C=C1C(=O)O[C@H]2[C@H]1CC/C(COC(=O)NCCCCCCCCNC(=O)OC/C1=C/CC[C@@]3(C)O[C@H]3[C@H]3OC(=O)C(=C)[C@@H]3CC1)=C\CC[C@@]1(C)O[C@@H]21 ?
-88.7

GET /values?readout=growth&system=A498 renal&item= COc1cc(Nc2c3ccc(Cl)cc3nc3ccc(OC)cc23)c2ncccc2c1
62.4

Reported growth for A498 renal, given C[C@H]1[C@H](C)CC[C@]2(C(=O)O)CC[C@]3(C)C(=CC[C@@H]4[C@@]5(C)C[C@@H](Cc6cn([C@@H]7O[C@H](CO)[C@@H](O)[C@H](O)[C@H]7O)nn6)[C@H](O)C(C)(C)[C@@H]5CC[C@]43C)[C@H]12 ?
80.7

// lookup growth | system=A498 renal | key= COc1ccc2c(O)c(/C=C3\N=Nc4ccccc43)oc2c1C[C@H]1CCNC[C@H]1F
39.9

Form: Entry = O=P(O)(O)OCC1OC(n2cnc3c(NCc4ccccc4)ncnc32)C(O)C1O (stereo unspecified) | System = A498 renal | growth = ____
-11.5

----------
system: OVCAR-5 ovarian; assay: NCI-60 one-dose screen, 48 h; conditions: 10 µM unless noted
The panel holds about 83,000 compounds, 20% with a hit somewhere; the sample as a whole holds those more often. The source made the active and inactive calls. Rule for the calls: active = growth percent below 10; inactive = the rest.
Write down one outcome, taken from active, inactive

Answer briefly: the call reported for COc1cc2ncnc(Nc3ccc(F)c(Cl)c3)c2cc1OCC(=O)N1CCN(c2ccc(F)cc2)CC1 in this assay.
inactive

State the result this test recorded for Cc1cccc(NC(=O)CSc2nc3ccc([N+](=O)[O-])cc3[nH]2)c1 .
inactive

Write down the call the test reported for this compound. Item: O=C(OC[C@@H]1CO1)c1cccc2c(=O)c3ccccc3[nH]c12
active

Short answer needed: outcome of this test for Cc1nn(-c2ccccc2)c(/N=C/N(C)C)c1/C=C/C(=O)c1ccc(Cl)cc1 ?
inactive

Hello, I am checking results. What call was entered for Cc1[nH]c(C(=O)Nc2cccc(OC3CCNCC3)c2)c(Cl)c1Cl ?
inactive

// param item: Cc1c2cnccc2c(C)c2c1c1cc(C3OCCCO3)ccc1n2C ; yields the recorded call
active

Tell me the recorded outcome of this test for Cc1cc(C)cc(Nc2ccc([N+](=O)[O-])c(NCCN3CCOCC3)n2)c1 .
inactive

Which outcome did this test record for the compound O=C(N/N=C/c1ccc(O)cc1O)c1ccc(Nc2ccnc(C(F)(F)F)c2)cc1 ?
inactive

I'd appreciate the recorded outcome for COc1ccc(/C=C/C(=O)c2ccc(NC(=O)CSc3nnc(-c4cc(-c5ccccc5)nc5ccccc45)n3-c3ccccc3)cc2)cc1 from this test.
inactive

Dear all, I need the recorded test outcome for CCOC(=O)N1CCN(S(=O)(=O)c2oc(-c3ccc(Cl)cc3)nc2C#N)CC1 , thank you.
inactive

Please state the recorded outcome for this compound: COc1ccc(C(C)=O)cc1S(N)(=O)=O
inactive

Query: recorded result category for O=C(CCCCNC(=O)c1cc(=O)c(O)co1)Nc1ccccc1 in this test
inactive

Status in this test for COc1ccc(C2=NN(C(C)=O)C(c3ccc(Oc4ccnc5cc(Cl)ccc45)c(OC)c3)C2)cc1 (stereo not given) ?
inactive

Per the assay record, what outcome was assigned to CCOC(=O)c1c(C)nc2ccccc2c1/C=C/c1ccc(OC)cc1 ?
inactive

Tell me the assay call for C#CCOc1ccc2ncnc(Nc3cccc(NC(=O)CCl)c3)c2c1 please.
inactive

Test call, this compound: COc1ccc(-c2nnc(SCC(=O)Nc3ccc(/C(C)=N\O)cc3)n2-c2ccccc2)cc1OC
inactive

Given N=C(N)c1ccc(-c2ccc(-c3ccc(F)cc3)s2)s1 , state the outcome it received in this test.
active

Assay outcome for CCCCC(=O)Nc1ncc(Cc2ccccc2Cl)s1 : what was it?
inactive

// return assay outcome for CCOc1ccc(/C=N\N=C\c2ccc(OCC)cc2)cc1
inactive

Look up the recorded call for CC[C@@H](c1ccc2cc(OC)ccc2c1)C(C)(C)C(=O)F in this test.
inactive
